Molecular target: recombinant wildtype and mutated PPO (Amaranthus PPO2: PPX2L_WC SEQ ID NO 2, PPX2L_AC SEQ ID NO 4, dG210 SEQ ID NO 6 & 8) (Amaranthus tuberculatus, UniProt Q0NZW9, D133A/F420V/R128C)
Experiment: biochemical
Conditions: IC50 (M)
Entries and their log10(IC50)
All values: log10 IC50 [M].

// below: answered molecules
| Molecule | Attribute measured | Recorded number |
| --- | --- | --- |
| CCOC(=O)C(C)OC(=O)c1cc(Oc2ccc(C(F)(F)F)cc2Cl)ccc1[N+](=O)[O-] (centres unmarked) | log10(IC50) | -7.82 |
| COC(=O)C(OC)Oc1ccccc1Oc1cc(-n2c(=O)cc(C(F)(F)F)n(C)c2=O)c(F)cc1Cl (centres unmarked) | log10(IC50) | -7.94 |
| CS(=O)(=O)NC(=O)c1cc(Oc2ccc(C(F)(F)F)cc2Cl)ccc1[N+](=O)[O-] | log10(IC50) | -5.63 |
| C#CCN1C(=O)C(F)(F)Oc2cc(F)c(-n3c(=O)cc(C(F)(F)F)n(C)c3=O)cc21 | log10(IC50) | -7.59 |
| COC(Oc1ccccc1Oc1cc(-n2c(=O)cc(C(F)(F)F)n(C)c2=O)c(F)cc1Cl)C(=O)OC1CCCCC1 (centres unmarked) | log10(IC50) | -7.00 |
| O=C(O)c1cc(Oc2ccc(C(F)(F)F)cc2Cl)ccc1[N+](=O)[O-] | log10(IC50) | -5.17 |
| CCOc1cc(Oc2ccc(C(F)(F)F)cc2Cl)ccc1[N+](=O)[O-] | log10(IC50) | -7.19 |

Pending molecule:
Exercise: Item "C=CCOC(=O)C(C)(C)OC(=O)c1cc(-n2c(=O)cc(C(F)(F)F)n(C)c2=O)ccc1Cl" has what recorded log10(IC50)?
Key: -7.17

* * *

Target: recombinant wildtype and mutated PPO (Amaranthus PPO2: PPX2L_WC SEQ ID NO 2, PPX2L_AC SEQ ID NO 4, dG210 SEQ ID NO 6 & 8) (Amaranthus tuberculatus, UniProt Q0NZW9, D133A/F420I/R128H)
Test: biochemical
Conditions: IC50 (M)
Attribute measured: IC50 (M)
Respond with the bare value in M.

| Compound | IC50 (M) |
| --- | --- |
| COC(Oc1ccccc1Oc1cc(-n2c(=O)cc(C(F)(F)F)n(C)c2=O)c(F)cc1Cl)C(=O)OC1CCCCC1 (stereo not drawn) | 1.31e-06 |
| C#CCN1C(=O)C(F)(F)Oc2cc(F)c(-n3c(=O)n(C)c(=S)n(C)c3=O)cc21 | 8.22e-08 |

Exercise: Item COC(=O)C(OC)Oc1ccccc1Oc1cc(-n2c(=O)cc(C(F)(F)F)n(C)c2=O)c(F)cc1Cl (stereo not drawn) has what recorded IC50?
Key: 7.54e-08

* * *

Entries and their log10 IC50
Biological target: recombinant wildtype and mutated PPO (Amaranthus PPO2: PPX2L_WC SEQ ID NO 2, PPX2L_AC SEQ ID NO 4, dG210 SEQ ID NO 6 & 8) (Amaranthus tuberculatus, UniProt Q0NZW9, D133A/F420M/R128M)
Assay: biochemical
Settings: IC50 (M)
All values: log10 IC50 [M].

| Compound | Attribute measured | Recorded number |
| --- | --- | --- |
| CCOc1cc(Oc2ccc(C(F)(F)F)cc2Cl)ccc1[N+](=O)[O-] | log10 IC50 | -6.13 |

Exercise: Item "C#CCN1C(=O)C(F)(F)Oc2cc(F)c(-n3c(=O)cc(C(F)(F)F)n(C)c3=O)cc21" has what recorded log10 IC50?
Key: -7.31

Exercise: And CCOC(=O)C(C)OC(=O)c1cc(Oc2ccc(C(F)(F)F)cc2Cl)ccc1[N+](=O)[O-] (centres unmarked) ?
Key: -6.88

Exercise: And COC(Oc1ccccc1Oc1cc(-n2c(=O)cc(C(F)(F)F)n(C)c2=O)c(F)cc1Cl)C(=O)OC1CCCCC1 (centres unmarked) ?
Key: -7.49

Exercise: And "CCOC(=O)COc1ncccc1Oc1cc(-n2c(=O)cc(C(F)(F)F)n(C)c2=O)c(F)cc1Cl" ?
Key: -7.32

Exercise: And CCOC(=O)C(Cl)Cc1cc(-n2nc(C)n(C(F)F)c2=O)c(F)cc1Cl (centres unmarked) ?
Key: -7.10

* * *

Molecular target: recombinant wildtype and mutated PPO (Amaranthus PPO2: PPX2L_WC SEQ ID NO 2, PPX2L_AC SEQ ID NO 4, dG210 SEQ ID NO 6 & 8) (Amaranthus tuberculatus, UniProt Q0NZW9, D133A/F420L/R128H)
Test: biochemical
Details: IC50 (M)
Attribute measured: IC50 (M)
Respond with the bare value in M.

| Compound | Unit tag | IC50 |
| --- | --- | --- |
| COC(=O)C(OC)Oc1ccccc1Oc1cc(-n2c(=O)cc(C(F)(F)F)n(C)c2=O)c(F)cc1Cl (stereo not drawn) | M | 4.47e-08 |
| COC(Oc1ccccc1Oc1cc(-n2c(=O)cc(C(F)(F)F)n(C)c2=O)c(F)cc1Cl)C(=O)OC1CCCCC1 (stereo not drawn) | M | 6.93e-07 |

Pending compound:
Exercise: Item "C#CCN1C(=O)C(F)(F)Oc2cc(F)c(-n3c(=O)n(C)c(=S)n(C)c3=O)cc21" has what recorded IC50?
Key: 7.98e-08

* * *

Target: recombinant wildtype and mutated PPO (Amaranthus PPO2: PPX2L_WC SEQ ID NO 2, PPX2L_AC SEQ ID NO 4, dG210 SEQ ID NO 6 & 8) (Amaranthus tuberculatus, UniProt Q0NZW9, D133A/F420M/R128Y)
Sequence (Q0NZW9 1-534 R128Y/D133A/F420M): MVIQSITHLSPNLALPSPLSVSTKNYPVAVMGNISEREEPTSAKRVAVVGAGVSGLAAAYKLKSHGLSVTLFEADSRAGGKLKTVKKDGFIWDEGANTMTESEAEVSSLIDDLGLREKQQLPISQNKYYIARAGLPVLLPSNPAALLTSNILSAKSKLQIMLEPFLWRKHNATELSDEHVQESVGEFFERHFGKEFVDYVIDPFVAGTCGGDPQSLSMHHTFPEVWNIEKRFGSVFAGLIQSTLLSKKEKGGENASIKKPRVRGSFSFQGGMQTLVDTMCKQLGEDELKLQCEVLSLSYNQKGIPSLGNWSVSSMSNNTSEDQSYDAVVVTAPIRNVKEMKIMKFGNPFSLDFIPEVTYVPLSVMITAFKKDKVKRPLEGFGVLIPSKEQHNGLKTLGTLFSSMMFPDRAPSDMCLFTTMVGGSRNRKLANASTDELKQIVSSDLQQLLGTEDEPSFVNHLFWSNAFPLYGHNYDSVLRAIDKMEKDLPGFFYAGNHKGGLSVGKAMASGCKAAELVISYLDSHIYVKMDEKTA
Experiment: biochemical
Details: IC50 (M)
Attribute measured: log10 IC50 (log10 of the value in M)
All values: log10 IC50 [M].

| Molecule | log10 IC50 |
| --- | --- |
| CCOC(=O)COc1ncccc1Oc1cc(-n2c(=O)cc(C(F)(F)F)n(C)c2=O)c(F)cc1Cl | -7.05 |

Exercise: Item CCOC(=O)C(C)OC(=O)c1cc(Oc2ccc(C(F)(F)F)cc2Cl)ccc1[N+](=O)[O-] (stereo not shown) has what recorded log10 IC50?
Key: -6.84

Exercise: And "C=CCOC(=O)C(C)(C)OC(=O)c1cc(-n2c(=O)cc(C(F)(F)F)n(C)c2=O)ccc1Cl" ?
Key: -7.30

Exercise: And "CCOc1cc(Oc2ccc(C(F)(F)F)cc2Cl)ccc1[N+](=O)[O-]" ?
Key: -5.95

Exercise: And "C#CCN1C(=O)C(F)(F)Oc2cc(F)c(-n3c(=O)cc(C(F)(F)F)n(C)c3=O)cc21" ?
Key: -6.95

Exercise: And CCOC(=O)C(Cl)Cc1cc(-n2nc(C)n(C(F)F)c2=O)c(F)cc1Cl (stereo not shown) ?
Key: -7.07

* * *

Target: recombinant wildtype and mutated PPO (Amaranthus PPO2: PPX2L_WC SEQ ID NO 2, PPX2L_AC SEQ ID NO 4, dG210 SEQ ID NO 6 & 8) (Amaranthus tuberculatus, UniProt Q0NZW9, D133A/F420L/R128C)
Experiment: biochemical
Conditions: IC50 (M)
Entries and their log10 IC50
All values: log10 IC50 [M].

// below: answered compounds
| Compound | Recorded number |
| --- | --- |
| CCOC(=O)C(C)OC(=O)c1cc(Oc2ccc(C(F)(F)F)cc2Cl)ccc1[N+](=O)[O-] (stereo not shown) | -6.85 |
| CCOC(=O)COc1ncccc1Oc1cc(-n2c(=O)cc(C(F)(F)F)n(C)c2=O)c(F)cc1Cl | -6.17 |
| C#CCN1C(=O)C(F)(F)Oc2cc(F)c(-n3c(=O)cc(C(F)(F)F)n(C)c3=O)cc21 | -7.17 |

Exercise: Item CCOC(=O)C(Cl)Cc1cc(-n2nc(C)n(C(F)F)c2=O)c(F)cc1Cl (stereo not shown) has what recorded log10 IC50?
Key: -6.51

Exercise: And "C=CCOC(=O)C(C)(C)OC(=O)c1cc(-n2c(=O)cc(C(F)(F)F)n(C)c2=O)ccc1Cl" ?
Key: -6.96

Exercise: And "CCOc1cc(Oc2ccc(C(F)(F)F)cc2Cl)ccc1[N+](=O)[O-]" ?
Key: -5.83
